Values were extracted from the supplement of paper PMC8975748.

Test system: Saccharomyces cerevisiae BY4741 SeMeCo community
Experiment: z-score of subpopulation abundance vs DMSO median, subpopulation auxotrophic for HUM; higher = larger share of this subpopulation than in DMSO controls
Settings: 10 µM; 24 h; SM minimal medium; subpopulation (auxotrophy): HUM
Where a name gives a salt, the structure may show the parent alone.
observedProperty: z-score of subpopulation abundance
Write the value as a bare number.

1) O=C1OC(CN2CCOCC2)CN1/N=C/c1ccc([N+](=O)[O-])o1 (stereo unspecified) [Furaltadone HCl]; -0.1
2) O=c1[nH]c(=O)n([C@H]2C[C@H](O)[C@@H](CO)O2)cc1I; -0.68
3) CCc1cccc2c3c([nH]c12)C(CC)(CC(=O)O)OCC3 (stereo unspecified); -0.52
4) NC(=O)OCC(COC(N)=O)c1ccccc1 [Felbamate]; -0.71
5) O=c1ccc2ccc(OCCCCN3CCN(c4cccc5sccc45)CC3)cc2[nH]1; 0.25

With those in mind, consider the next molecule.
[Q] Looking for the measured z-score of subpopulation abundance of CC(C)(C)C(=O)C(Oc1ccc(Cl)cc1)n1ccnc1 (stereo unspecified) , can you help?
[A] 9.71

###

Tested on: Saccharomyces cerevisiae BY4741 SeMeCo community
Assay: z-score of subpopulation abundance vs DMSO median, subpopulation auxotrophic for L; higher = larger share of this subpopulation than in DMSO controls
Settings: 10 µM; 24 h; SM minimal medium; subpopulation (auxotrophy): L
Collected z-score of subpopulation abundance values appear next to each entry.

[Q] Fill in the recorded z-score of subpopulation abundance for this molecule, with Saccharomyces cerevisiae BY4741 SeMeCo community as test system: `CCCCOC(=O)c1ccc(O)cc1`
[A] -0.62

[Q] Fill in the recorded z-score of subpopulation abundance for this molecule, with Saccharomyces cerevisiae BY4741 SeMeCo community as test system: `Nc1nc2[nH]cc(CCc3ccc(C(=O)N[C@@H](CCC(=O)O)C(=O)O)cc3)c2c(=O)[nH]1`
[A] 1.61

[Q] Fill in the recorded z-score of subpopulation abundance for this molecule, with Saccharomyces cerevisiae BY4741 SeMeCo community as test system: `CC[C@H](C)C(=O)O[C@H]1CCC=C2C=C[C@H](C)[C@H](CC[C@@H]3C[C@@H](O)CC(=O)O3)[C@H]21`
[A] -0.41

[Q] Fill in the recorded z-score of subpopulation abundance for this molecule, with Saccharomyces cerevisiae BY4741 SeMeCo community as test system: Cc1cccc(C)c1NC(=O)C1CCCCN1C (centres undefined) [Mepivacaine]
[A] -0.3

###

Collected z-score of subpopulation abundance values appear next to each entry.
System: Saccharomyces cerevisiae BY4741 SeMeCo community
Assay: z-score of subpopulation abundance vs DMSO median, subpopulation auxotrophic for H; higher = larger share of this subpopulation than in DMSO controls
Conditions: 10 µM; 24 h; SM minimal medium; subpopulation (auxotrophy): H
Counter-ions that a name gives are not always drawn.

Worked examples follow.
1. NC(=O)N1c2ccccc2C=Cc2ccccc21 [Carbamazepine]; -0.43
2. CN1[C@@H](CC(=O)c2ccccc2)CCC[C@H]1C[C@H](O)c1ccccc1 [Lobeline hydrochloride]; -0.65
3. O=C(Nc1ccc(Oc2ccc(Cl)cc2)c(Cl)c1)c1cc(I)cc(I)c1O [Rafoxanide]; 1.91

[Q] Looking for the measured z-score of subpopulation abundance of Cc1noc(NS(=O)(=O)c2ccc(N)cc2)c1C [Sulfisoxazole] , can you help?
[A] -0.4

[Q] Looking for the measured z-score of subpopulation abundance of CC(C)n1c(/C=C/C(O)CC(O)CC(=O)O)c(-c2ccc(F)cc2)c2ccccc21 (stereo unspecified) [Fluvastatin Sodium] , can you help?
[A] 6.45

[Q] Looking for the measured z-score of subpopulation abundance of CC(=O)OCC(COC(C)=O)OC(C)=O [Triacetin] , can you help?
[A] 0.22

[Q] Looking for the measured z-score of subpopulation abundance of C[C@@H](O)[C@H]1C(=O)N2C(C(=O)O)=C(S[C@@H]3CN[C@H](CNS(N)(=O)=O)C3)[C@H](C)[C@H]12 [Doripenem Hydrate] , can you help?
[A] -0.3

[Q] Looking for the measured z-score of subpopulation abundance of CCn1cc(C(=O)O)c(=O)c2cc(F)c(N3CCNCC3)nc21 [Enoxacin Sesquihydrate] , can you help?
[A] -1.49

[Q] Looking for the measured z-score of subpopulation abundance of COc1cccc(CCc2ccccc2OCC(CN(C)C)OC(=O)CCC(=O)O)c1 (stereo unspecified) [Sarpogrelate hydrochloride] , can you help?
[A] -0.59

[Q] Looking for the measured z-score of subpopulation abundance of CC[C@H]1OC(=O)[C@H](C)[C@@H](O[C@H]2C[C@@](C)(OC)[C@@H](O)[C@H](C)O2)[C@H](C)[C@@H](O[C@@H]2O[C@H](C)C[C@H](N(C)C)[C@H]2O)[C@](C)(O)C[C@@H](C)C(=O)[C@H](C)[C@@H](O)[C@]1(C)O [Erythromycin] , can you help?
[A] 1

[Q] Looking for the measured z-score of subpopulation abundance of CC(=O)O[C@H]1C[C@@H]2CC[C@@H]3[C@H](CC[C@@]4(C)[C@H]3C[C@H]([N+]3(C)CCCCC3)[C@@H]4OC(C)=O)[C@@]2(C)C[C@@H]1N1CCCCC1 [Vecuronium Bromide] , can you help?
[A] -0.09

[Q] Looking for the measured z-score of subpopulation abundance of C[C@@H]1CC(=O)NN=C1c1ccc(NN=C(C#N)C#N)cc1 [Levosimendan] , can you help?
[A] -0.43

[Q] Looking for the measured z-score of subpopulation abundance of CNS(=O)(=O)CCc1ccc2[nH]cc(C3CCN(C)CC3)c2c1 [Naratriptan HCl] , can you help?
[A] -0.46

[Q] Looking for the measured z-score of subpopulation abundance of CCCN(CCc1cccs1)[C@H]1CCc2c(O)cccc2C1 [Rotigotine] , can you help?
[A] -0.04

[Q] Looking for the measured z-score of subpopulation abundance of CCOc1ccc2ccccc2c1C(=O)N[C@@H]1C(=O)N2[C@@H]1SC(C)(C)[C@@H]2C(=O)O [Nafcillin Sodium] , can you help?
[A] -0.47

[Q] Looking for the measured z-score of subpopulation abundance of COc1ccc(C[C@H](N)C(=O)N[C@H]2[C@@H](O)[C@H](n3cnc4c(N(C)C)ncnc43)O[C@@H]2CO)cc1 [Puromycin 2HCl] , can you help?
[A] -0.66

###

Test system: Saccharomyces cerevisiae BY4741 SeMeCo community
Test: mean cell size (pixel area) (pixels); higher = larger cells
Details: 10 µM; 24 h; SM minimal medium
Where a name gives a salt, the structure may show the parent alone.
Collected mean cell size values appear next to each entry.

Worked examples follow.
1. O=C(CCCN1CCC(O)(c2ccc(Cl)cc2)CC1)c1ccc(F)cc1 [Haloperidol]; 12.4
2. O=C1CC2(CCCC2)CC(=O)N1CCCCN1CCN(c2ncccn2)CC1 [Buspirone HCl]; 12.4
3. C/C(=C\C(=O)OCCCCCCCCC(=O)O)C[C@@H]1OC[C@H](C[C@@H]2O[C@H]2[C@@H](C)[C@H](C)O)[C@@H](O)[C@H]1O [Mupirocin calcium]; 12.2
4. CC[C@H]1OC(=O)[C@H](C)[C@@H](O[C@H]2C[C@@](C)(OC)[C@@H](O)[C@H](C)O2)[C@H](C)[C@@H](O[C@@H]2O[C@H](C)C[C@H](N(C)C)[C@H]2O)[C@](C)(O)C[C@@H](C)/C(=N\OCOCCOC)[C@H](C)[C@@H](O)[C@]1(C)O [Roxithromycin]; 12.4
5. COC(=O)C1=C(C)NC(C)=C(C(=O)OCC(C)C)C1c1ccccc1[N+](=O)[O-] (stereo not drawn) [Nisoldipine]; 12.2
6. O=C1NCC2(CCN(CCc3ccccc3)CC2)O1 [Fenspiride HCl]; 12.6
7. CCN(CC)CCNC(=O)c1cc(Cl)c(N)cc1OC [Metoclopramide HCl]; 12.4
8. CN(C)CCCN1c2ccccc2Sc2ccccc21 [Promazine hydrochloride]; 12.5

[Q] Looking for the measured mean cell size of CN(CCOc1ccc(NS(C)(=O)=O)cc1)CCc1ccc(NS(C)(=O)=O)cc1 [Dofetilide] , can you help?
[A] 12.4

[Q] Looking for the measured mean cell size of Oc1cccc(O)c1 [Resorcinol] , can you help?
[A] 12.4

###

Tested on: Saccharomyces cerevisiae BY4741 SeMeCo community
Assay: z-score of subpopulation abundance vs DMSO median, subpopulation auxotrophic for HU; higher = larger share of this subpopulation than in DMSO controls
Conditions: 10 µM; 24 h; SM minimal medium; subpopulation (auxotrophy): HU
Where a name gives a salt, the structure may show the parent alone.
observedProperty: z-score of subpopulation abundance
Write the value as a bare number.

Worked examples follow.
1. Cc1cc(NS(=O)(=O)c2ccc(N)cc2)no1 [Sulfamethoxazole sodium]; 0.96
2. N#Cc1ccc2[nH]cc(CCCCN3CCN(c4ccc5oc(C(N)=O)cc5c4)CC3)c2c1 [Vilazodone HCl]; 0.14

[Q] Fill in the recorded z-score of subpopulation abundance for this molecule, with Saccharomyces cerevisiae BY4741 SeMeCo community as test system: C#C[C@]1(O)CC[C@H]2[C@@H]3CCC4=CC(=O)CC[C@@H]4[C@H]3C(=C)C[C@@]21CC [Etonogestrel]
[A] 0.83

[Q] Fill in the recorded z-score of subpopulation abundance for this molecule, with Saccharomyces cerevisiae BY4741 SeMeCo community as test system: Nc1nc2[nH]cc(CCc3ccc(C(=O)N[C@@H](CCC(=O)O)C(=O)O)cc3)c2c(=O)[nH]1 [Pemetrexed Disodium Hydrate]
[A] 1.99

[Q] Fill in the recorded z-score of subpopulation abundance for this molecule, with Saccharomyces cerevisiae BY4741 SeMeCo community as test system: `CN(C)C[C@@H]1CCn2cc(c3ccccc32)C2=C(C(=O)NC2=O)c2cn(c3ccccc23)CCO1`
[A] -0.03

[Q] Fill in the recorded z-score of subpopulation abundance for this molecule, with Saccharomyces cerevisiae BY4741 SeMeCo community as test system: Cc1cccc(C)c1NC(=O)C1CCCCN1C (configuration not stated) [Mepivacaine HCl]
[A] 0.57

[Q] Fill in the recorded z-score of subpopulation abundance for this molecule, with Saccharomyces cerevisiae BY4741 SeMeCo community as test system: CC(C)(C)C(=O)OCOC(=O)[C@@H]1N2C(=O)[C@@H](/N=C/N3CCCCCC3)[C@H]2SC1(C)C [Pivmecillinam hydrochloride]
[A] -0.03

[Q] Fill in the recorded z-score of subpopulation abundance for this molecule, with Saccharomyces cerevisiae BY4741 SeMeCo community as test system: CC(C)[C@H](N)C(=O)OCC(CO)OCn1cnc2c(=O)[nH]c(N)nc21 (some centres not stated) [Valganciclovir HCl]
[A] -0.15

[Q] Fill in the recorded z-score of subpopulation abundance for this molecule, with Saccharomyces cerevisiae BY4741 SeMeCo community as test system: CC(C)[C@H]1CC[C@H](C(=O)N[C@H](Cc2ccccc2)C(=O)O)CC1 [Nateglinide]
[A] 0.06

[Q] Fill in the recorded z-score of subpopulation abundance for this molecule, with Saccharomyces cerevisiae BY4741 SeMeCo community as test system: CC(=O)[C@H]1CC[C@H]2[C@@H]3CC=C4C[C@@H](O)CC[C@]4(C)[C@H]3CC[C@]12C [Pregnenolone]
[A] -0.76

[Q] Fill in the recorded z-score of subpopulation abundance for this molecule, with Saccharomyces cerevisiae BY4741 SeMeCo community as test system: CN1C[C@@H]2C[C@H]1CN2c1cc2c(cc1F)c(=O)c(C(=O)O)cn2C1CC1 [Danofloxacin Mesylate]
[A] -0.09

[Q] Fill in the recorded z-score of subpopulation abundance for this molecule, with Saccharomyces cerevisiae BY4741 SeMeCo community as test system: CCN(CC)CC#CCOC(=O)C(O)(c1ccccc1)C1CCCCC1 (configuration not stated) [Oxybutynin chloride]
[A] -0.4
